target: Cytochrome P450 3A4 (Homo sapiens); assay: qHTS Assay for Inhibitors and Substrates of Cytochrome P450 3A4 (AID 884); settings: recombinant CYP3A4, Luciferin-PPXE luminescence; series mostly up to 57.1 µM; further: on the % scale 0 is the no-effect control and ±100 the full control effect; nearly all actives have a fitted effect of over 50% in size
Records with an inconclusive call do not appear. Active and inactive are the calls of the source. The call rests on the fitted dose curve; in most records, active means well fitted inhibition curve with a large enough effect; inconclusive means small, poorly fitted or top-dose-only effect; inactive means no such curve, though single readings can be large or run the other way.

# compound, measured target, activity change, negative = inhibition
data = [
    ("COc1ccc(C(=O)Oc2cc(OC)cc(OC)c2C(C)=O)cc1", "Cytochrome P450 3A4 (Homo sapiens)", "-16.9% [at 11.4 µM] (inactive)"),
    ("CCCCCCCC1=CC2=CC(=O)C(C)(O)C(=O)C2=CN1CCCC (configuration not stated)", "Cytochrome P450 3A4 (Homo sapiens)", "-26.9% [at 11.4 µM] (inactive)"),
    ("Cc1c(O)c(=O)ccn1Cc1ccccc1", "Cytochrome P450 3A4 (Homo sapiens)", "-6.33% [at 11.4 µM] (inactive)"),
    ("Cc1c(O)c(=O)c2ccccc2n1C", "Cytochrome P450 3A4 (Homo sapiens)", "0.317% [at 11.4 µM] (inactive)"),
    ("CC(=O)c1ccc(OCc2ccccc2)c(C)c1O", "Cytochrome P450 3A4 (Homo sapiens)", "-20.5% [at 11.4 µM] (inactive)"),
    ("COC(=O)C(C(C)=O)C(=O)C(Cc1ccccc1)NC(=O)OCc1ccccc1 (configuration not stated)", "Cytochrome P450 3A4 (Homo sapiens)", "-19.6% [at 11.4 µM] (inactive)"),
    ("CC(C)(C)OC(=O)C1=NOC2(C=CC(=O)C=C2)C1", "Cytochrome P450 3A4 (Homo sapiens)", "-24.2% [at 11.4 µM] (inactive)"),
    ("CC1(O)C(=O)C=C2C=C3CCCN3C=C2C1=O (configuration not stated)", "Cytochrome P450 3A4 (Homo sapiens)", "-12% [at 11.4 µM] (inactive)"),
    ("Cc1c(O)ccc2c1OCO2", "Cytochrome P450 3A4 (Homo sapiens)", "-25.6% [at 11.4 µM] (inactive)"),
    ("C=CCC1(O)C=CCC2C3C4C(OC(C)(C)C)C2C1C34 (configuration not stated)", "Cytochrome P450 3A4 (Homo sapiens)", "-11.8% [at 11.4 µM] (inactive)"),
    ("COCn1c2ccccc2c2nnc(C(=O)O)nc21", "Cytochrome P450 3A4 (Homo sapiens)", "-11.5% [at 11.4 µM] (inactive)"),
    ("CNc1ccccc1C(=O)OCC(C)=O", "Cytochrome P450 3A4 (Homo sapiens)", "-11.5% [at 11.4 µM] (inactive)"),
]

----------
assay: Primary qHTS for inhibitors of nuclear receptor binding SET domain protein 2 (NSD2) in an isogenic RCH-ACV NSD2 p.E1099K mutant (9B) (AID 1645876); settings: RCH-ACV (leukaemia line) NSD2 E1099K (9B) viability, CellTiter-Glo, 72 h; series mostly up to 44.9 µM; further: nearly all actives have a fitted effect of over 70% in size
Inconclusive results are not listed. Calls of active or inactive are those of the source. The call rests on the fitted dose curve; in most records, active means well fitted inhibition curve with a large enough effect; inconclusive means small, poorly fitted or top-dose-only effect; inactive means flat fitted curve, though single readings scatter.
Possible outcomes: 1.0 for active, 0.0 for inactive

# molecule, assigned class
records = [
    ("COc1ccc(-c2nc(-c3cc(C(F)(F)F)cc(C(F)(F)F)c3)n(Cc3ccc(C(N)=O)cc3)c2-c2ccc(OC)cc2)cc1", 0.0),
    ("Cc1cc(Nc2cc(C)c(C#N)c(NC(C)CCCC(C)(C)O)n2)n[nH]1 (stereo not given)", 1.0),
    ("Cc1cc(C)c(-c2csc(NC(=O)c3ccccc3)n2)c(C)c1", 1.0),
    ("O=C(NNc1ccccc1)c1ccncc1", 0.0),
    ("C[C@H](NC(=O)C(C)(C)Oc1ccc(C(F)(F)F)cn1)[C@@H](Cc1ccc(Cl)cc1)c1cccc(C#N)c1", 1.0),
    ("CC1(C)SC2C(NC(=O)[C@H](NC(=O)N3CCNC3=O)c3ccccc3)C(=O)N2C1C(=O)O (stereo not given in full)", 0.0),
    ("CCOc1ccc(-c2nc(-c3cccc4c3CCC4NCCO)no2)cc1OCC (stereo not given)", 1.0),
    ("COc1cc(O)ccc1OCCNCC(O)COc1cccc2[nH]c3ccccc3c12 (stereo not given)", 1.0),
    ("COc1cc2ncnc(Nc3ccc(NC(=O)c4ccccc4)cc3)c2cc1OC", 1.0),
    ("CN[C@@H]1[C@@H](O)[C@@H](O[C@@H]2[C@@H](O)[C@H](O[C@H]3O[C@@H]([C@@H](C)NC)CC[C@H]3N)[C@@H](N)C[C@H]2N)OC[C@]1(C)O", 0.0),
    ("C[C@@H](O[C@H]1OCCN(Cc2n[nH]nc2CN(C)C)[C@H]1c1ccc(F)cc1)c1cc(C(F)(F)F)cc(C(F)(F)F)c1", 1.0),
    ("O=C1O[C@H](C(O)CO)C(=O)C1=O (stereo not given in full)", 0.0),
    ("OCC(CO)(CO)NCC(O)Cn1c2ccc(Cl)cc2c2cc(Cl)ccc21 (stereo not given)", 1.0),
    ("CN(C)CC(=O)Nc1ccc2[nH]c(=O)c3ccccc3c2c1", 1.0),
    ("BrC1C(Br)C(Br)C(Br)C(Br)C1Br (stereo not given)", 0.0),
    ("CN(C)CC1CCn2cc(c3ccccc32)C2=C(C(=O)NC2=O)c2cn(c3ccccc23)CCO1 (stereo not given)", 1.0),
    ("Cc1cc(Nc2nn(-c3ccccc3)c(=O)c3ccccc23)n[nH]1", 1.0),
    ("Cc1cc2nc(NCCCO)n(CC(=O)c3cc(C(C)(C)C)c(O)c(C(C)(C)C)c3)c2cc1C", 1.0),
    ("COc1cc(/C=C(\\C#N)C(N)=O)cc(CSc2nc3ccccc3s2)c1O", 0.0),
    ("CCCCOc1ccc(-c2cncc(C(=O)NCc3cccnc3N3CCOCC3)c2)cc1Cl", 0.0),
]
